- measuredTarget: CFTR-G178R (Homo sapiens, UniProt P13569, G178R)
- Construct: expressed in transfected cells
- Sequence (P13569 whole entry G178R): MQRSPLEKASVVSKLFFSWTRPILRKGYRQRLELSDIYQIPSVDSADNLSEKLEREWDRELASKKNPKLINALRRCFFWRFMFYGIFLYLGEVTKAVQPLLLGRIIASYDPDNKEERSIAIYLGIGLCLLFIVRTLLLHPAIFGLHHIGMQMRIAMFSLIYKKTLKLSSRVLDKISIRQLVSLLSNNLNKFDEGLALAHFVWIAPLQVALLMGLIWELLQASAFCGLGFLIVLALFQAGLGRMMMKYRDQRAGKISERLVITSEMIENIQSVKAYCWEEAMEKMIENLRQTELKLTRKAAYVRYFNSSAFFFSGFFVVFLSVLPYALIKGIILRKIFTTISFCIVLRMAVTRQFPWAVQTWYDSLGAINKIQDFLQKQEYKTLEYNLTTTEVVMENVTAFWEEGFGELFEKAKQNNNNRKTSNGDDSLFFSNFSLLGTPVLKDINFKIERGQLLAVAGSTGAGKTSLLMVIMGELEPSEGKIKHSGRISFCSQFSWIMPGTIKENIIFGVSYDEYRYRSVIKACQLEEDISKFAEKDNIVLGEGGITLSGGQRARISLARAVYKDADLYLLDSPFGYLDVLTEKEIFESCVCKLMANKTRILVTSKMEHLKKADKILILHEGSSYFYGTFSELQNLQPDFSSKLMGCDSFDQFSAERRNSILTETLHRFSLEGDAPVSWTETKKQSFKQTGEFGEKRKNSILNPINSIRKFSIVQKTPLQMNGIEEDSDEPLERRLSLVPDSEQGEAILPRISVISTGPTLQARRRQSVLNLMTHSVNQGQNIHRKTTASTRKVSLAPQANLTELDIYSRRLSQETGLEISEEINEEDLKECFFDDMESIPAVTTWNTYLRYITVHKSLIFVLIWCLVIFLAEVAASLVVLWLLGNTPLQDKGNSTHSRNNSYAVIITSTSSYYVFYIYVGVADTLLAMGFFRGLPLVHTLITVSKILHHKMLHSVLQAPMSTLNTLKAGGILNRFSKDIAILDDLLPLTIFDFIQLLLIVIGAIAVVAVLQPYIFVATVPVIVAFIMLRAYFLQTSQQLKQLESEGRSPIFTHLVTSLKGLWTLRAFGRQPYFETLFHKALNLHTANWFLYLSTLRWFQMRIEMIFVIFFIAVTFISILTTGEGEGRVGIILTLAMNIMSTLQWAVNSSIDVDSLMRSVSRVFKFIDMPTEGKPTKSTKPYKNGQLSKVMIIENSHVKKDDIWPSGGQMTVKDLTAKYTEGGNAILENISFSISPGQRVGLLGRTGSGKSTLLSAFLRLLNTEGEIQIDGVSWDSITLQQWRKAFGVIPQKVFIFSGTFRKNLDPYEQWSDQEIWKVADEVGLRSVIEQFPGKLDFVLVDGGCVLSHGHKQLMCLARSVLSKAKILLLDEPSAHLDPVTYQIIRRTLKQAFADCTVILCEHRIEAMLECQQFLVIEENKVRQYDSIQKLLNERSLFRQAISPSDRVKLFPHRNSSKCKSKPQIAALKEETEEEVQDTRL
- assay: YFP-halide influx assay for the CFTR-G178R
- Type: cell-based
- Protocol: The YFP halide influx assay measured the functionality of the cystic fibrosis Transmembrane Conductance regulator (CFTR) channels. The assay was used to evaluate the capacity of compounds to increase the channel opening of existing mutant CFTR channels in the membrane. […] The I^−-induced quenching of fluorescence was recorded immediately after injection of I^− for 7 seconds. […]
Class criterion met: % Activation at least 80%. Class criterion not met: % Activation below 80%.

> print(dat)
                                   molecule       category
1  COCC(O)CNC(=O)c1ncc(S(=O)(=O)c2ccccc2OC(F)(F)F)cc1N (centres unmarked)  criterion met

input: API: above_or_equal(metric=% Activation, cutoff=80%) for item CC(C)(O)CNC(=O)c1ncc(S(=O)(=O)c2ccc(C(F)(F)F)cc2)cc1N
output: criterion met

====

- measuredTarget: CFTR G551D mutant (Homo sapiens, UniProt P13569, G551D)
- Construct: expressed in transfected cells; host or cells: HEK293 cells, reverse transfection with plasmids
- Sequence (P13569 whole entry G551D): as the sequence (P13569 whole entry G178R) above, with R178G, G551D counted along it
- assay: YFP-halide influx assay for the CFTR-G551D mutation (HEK293 cells)
- Type: cell-based
- conditionContext: forskolin 10.67 μM
reportedEndpoint: % Activation (%)
Please reply with the bare figure in % and do not write the unit itself.

> print(dat)
                                   compound                            measuredtarget  measvalue
1  C[C@H](O)CNC(=O)c1nc(Oc2cccc(F)c2)c(S(=O)(=O)c2ccc(OC(F)(F)F)cc2)cc1N  CFTR G551D mutant (Homo sapiens, UniProt P13569, G551D)       67.0
2  NC(=O)c1ncc(S(=O)(=O)c2ccc(OC(F)(F)F)cc2)cc1N  CFTR G551D mutant (Homo sapiens, UniProt P13569, G551D)         85
3  Nc1cc(S(=O)(=O)c2ccc(OC(F)(F)F)cc2)cnc1C(=O)NCC1(O)CCOCC1  CFTR G551D mutant (Homo sapiens, UniProt P13569, G551D)       58.7
4  Nc1cc(S(=O)(=O)c2ccc(OC(F)(F)F)cc2)cnc1C(=O)NCCO  CFTR G551D mutant (Homo sapiens, UniProt P13569, G551D)       71.6
5  Nc1cc(S(=O)(=O)c2ccc(OC(F)(F)F)cc2)cnc1C(=O)NCC(O)C(F)(F)F (centres unmarked)  CFTR G551D mutant (Homo sapiens, UniProt P13569, G551D)       82.5

% Activation on CFTR G551D mutant (Homo sapiens, UniProt P13569, G551D) for CN(Cc1ccc(F)cc1)S(=O)(=O)c1cnc(C(=O)NCC(O)C(F)(F)F)c(N)c1 (centres unmarked) is 71.8

Entry Nc1cc(S(=O)(=O)c2ccc(C(F)(F)F)cc2)cnc1C(=O)N1CC(O)(C(F)(F)F)C1 ; assay system CFTR G551D mutant (Homo sapiens, UniProt P13569, G551D); % Activation recorded at 50.4

% Activation on CFTR G551D mutant (Homo sapiens, UniProt P13569, G551D) for COCC(O)CNC(=O)c1ncc(S(=O)(=O)c2ccc(OC(F)(F)F)cc2)cc1N (centres unmarked) is 73.9
